Where do these numbers come from? They come from patent US20110105397A1.

Assay: Human pharmacokinetics, healthy subjects, 7.5-hour continuous ascending dose IV infusion
Assay type: in vivo
Conditions: human, in vivo, healthy subjects, across dose groups; read-out: Mean terminal half-life
endpoint: half-life

substance="H-TKFTLSLDVPTNIMNLLFNIAKAKNLRAQAAANAHLMAQI-NH2 [SEQ ID NO: 1]" observed="128 to 1710 min"

====

Assay: Nonclinical pharmacokinetics in cynomolgus monkeys
Settings: female, cynomolgus monkey, in vivo; cyno IV infusion 3 hours, F, 100 ng/kg/min
endpoint: AUC(0-inf) (ng·h/mL)

substance="H-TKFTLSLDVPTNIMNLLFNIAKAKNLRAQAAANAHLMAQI-NH2 [SEQ ID NO: 1]" observed=7.67
